Where do the numbers come from? From the supplement of paper PMC10567573.

B1: PPP2R2C (parent)
chain: YSSSKGSLRLCDMRAAALCDKHSK

# Variants of: B1
# MEASUREMENT PROTOCOL: protein stability index of a GFP-peptide fusion (GPS, HEK-293T) (PSI 1-6); higher = more stable;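 further: lentivirally expressed fusions sorted by FACS into six bins by GFP to DsRed ratio, PSI derived from sequencing read proportions per bin multiplied by bin number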
# SETTINGS: c terminus: a fixed tail appended
ASSAY READOUT: protein stability index

> print(dat)
     var  experimental.value
 1  A15D                1.72
 2  M13P                2.21
 3  R14A                2.03
 4  C19L                1.55
 5  S23R                1.78
 6  R14F                2.27
 7  L10M                1.92
 8  D12K                2.54
 9  A16G                2.55
10   S7I                1.34
11  A15M                2.72
12  A15V                 1.6
13  A16T                1.97
14   S2L                2.52
15  L10P                3.52
16  H22P                1.16
17   S3G                1.95
18  M13V                2.07
19  S23I                2.01
20  C19K                2.14
21  H22N                2.04
22   L8Q                1.89
